Where these numbers come from: PubChem BioAssay AID1745853

studySystem: Phenylethanolamine N-methyltransferase (Homo sapiens) (UniProt P11086)
Sequence (P11086 whole entry, looked up): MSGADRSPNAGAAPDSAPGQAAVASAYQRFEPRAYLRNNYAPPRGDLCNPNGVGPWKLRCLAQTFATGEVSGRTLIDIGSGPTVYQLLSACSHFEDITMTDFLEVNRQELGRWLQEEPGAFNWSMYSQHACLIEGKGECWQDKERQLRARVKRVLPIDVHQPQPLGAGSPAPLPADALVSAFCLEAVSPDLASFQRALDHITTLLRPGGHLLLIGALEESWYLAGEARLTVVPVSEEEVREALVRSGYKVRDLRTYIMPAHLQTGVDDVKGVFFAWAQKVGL
assaySummary: Primary Screen for Target Class Profiling of Small Molecule Inhibitors of Methyltransferases; also: % is scaled to controls: 0 for no effect and ±100 for the full control effect
conditionSummary: purified enzyme, MTase-Glo SAH luminescence; measured here: PNMT inhibition; at 40 µM; stronger effect = lower value
Out of some 25,000 compounds screened, about 970 (3.9%) were called active. About 8% were inconclusive and are not listed. This excerpt belongs to a sample that is enriched for actives.
Recorded activity change, negative = inhibition for the following compounds
propertyName: activity change, negative = inhibition (%)

compound | studySystem | testValue
Cc1cnc(C2CCC2)n1C1CCN(C(=O)CCC2CCCC2)CC1 | Phenylethanolamine N-methyltransferase (Homo sapiens) (UniProt P11086) | 12.5
CCCCNC(=O)CCc1nnc2n(CC(C)C)c(=O)c3ccccc3n12 | Phenylethanolamine N-methyltransferase (Homo sapiens) (UniProt P11086) | -0.917
CCOC(=O)c1cc2n(n1)CC(C)(C(=O)NCc1ccccc1)N(CCCc1ccccc1)C2=O (centres undefined) | Phenylethanolamine N-methyltransferase (Homo sapiens) (UniProt P11086) | 0.451
O=c1c2ccccc2n2c(=O)n(Cc3ccccc3)nc2n1Cc1ccc(F)cc1 | Phenylethanolamine N-methyltransferase (Homo sapiens) (UniProt P11086) | 5.22
CC(C)Cn1c(=O)c2ccccc2n2c(CCC(=O)N3CCN(c4cccc(Cl)c4)CC3)nnc12 | Phenylethanolamine N-methyltransferase (Homo sapiens) (UniProt P11086) | -12.4
O=C1Nc2ccc(O)cc2O[C@H]1O[C@@H]1O[C@H](CO)[C@@H](O)[C@H](O)[C@H]1O | Phenylethanolamine N-methyltransferase (Homo sapiens) (UniProt P11086) | 2.07
CN(CC(=O)N1CCC2(CCNCC2)CC1)Cc1cccnc1 | Phenylethanolamine N-methyltransferase (Homo sapiens) (UniProt P11086) | -3.85
CC1(C(=O)NC2CCCC2)Cn2c(cc3ccccc32)C(=O)N1c1ccc(F)cc1 (centres undefined) | Phenylethanolamine N-methyltransferase (Homo sapiens) (UniProt P11086) | 0.017
O=C(C1CCCC1)N1CCCC(c2noc(COc3ccccc3)n2)C1 (centres undefined) | Phenylethanolamine N-methyltransferase (Homo sapiens) (UniProt P11086) | -10.2
COc1c2c(c(C)c3c1C(=O)OC3)OC1(C)CC(O)C34OC(O)(CCC3(C)C1C2)OC4(C)C (centres undefined) | Phenylethanolamine N-methyltransferase (Homo sapiens) (UniProt P11086) | -0.001
C=Cc1ccc(Cn2nc3n(CC(C)C)c(=O)c4ccc(C(=O)NC(C)CC)cc4n3c2=O)cc1 (centres undefined) | Phenylethanolamine N-methyltransferase (Homo sapiens) (UniProt P11086) | 5.38
CCCN1C(=O)c2c(C(=O)NCCc3ccco3)ncn2CC1(C)C(=O)NCc1ccc(C)cc1 (centres undefined) | Phenylethanolamine N-methyltransferase (Homo sapiens) (UniProt P11086) | 9
CCCC1c2ccc(C)n2CCN1C(=O)Nc1ccc(OCC)cc1 (centres undefined) | Phenylethanolamine N-methyltransferase (Homo sapiens) (UniProt P11086) | 1.21
COCCN1CC2(CCC1=O)CCN(C(=O)[C@@H]1C[C@@H](O)CN1)CC2 | Phenylethanolamine N-methyltransferase (Homo sapiens) (UniProt P11086) | -19.8

----------
studySystem: Histamine N-methyltransferase (Homo sapiens)
assaySummary: Primary Screen for Target Class Profiling of Small Molecule Inhibitors of Methyltransferases; also: % is scaled to controls: 0 for no effect and ±100 for the full control effect
conditionSummary: purified enzyme, MTase-Glo SAH luminescence; measured here: HNMT inhibition; at 40 µM; stronger effect = lower value
The whole screen tested about 25,000 compounds, of which about 970 (3.9%) were called active. Another 8% or so got no clear call; they are omitted. The sample as a whole holds a higher share of actives than the screen did.

compound | activity change, negative = inhibition / %
O=C(NCc1ccc2c(c1)OCO2)c1sc(=S)n2c1[nH]c(=O)c1ccccc12 | -2.67
CCCn1c(=O)c2ccc(C(=O)NC(C)C)cc2n2c(=O)n(CC(=O)NCc3ccccc3Cl)nc12 | 6.44
CCN(CC)CCCCNc1ncc2cc(-c3c(Cl)cccc3Cl)c(NC(=O)NC(C)(C)C)nc2n1 | -54.9
CC1=C[C@@H](CNS(=O)(=O)c2cccc(C#N)c2)[C@H](C(C)C)C[C@H]1CC(=O)N(C)Cc1cccnc1 | -4.55
CCCCCCc1cc2c(-c3ccccc3)cc(=O)oc2cc1OCC(N)=O | -0.051
COc1cc2c(cc1O)NC(=O)CC2c1cn[nH]c1-c1cc(C)ccc1C (stereo not drawn) | -60.8
CC1CCCC(NC(=O)C2(C)Cn3c(nc4ccccc43)C(=O)N2Cc2ccc(Cl)cc2)C1C (stereo not drawn) | 0.57
Cc1cc(C)c(S(=O)(=O)NCCc2nc(-c3ccc(Cl)cc3)n[nH]2)cc1C | -1.1
COc1ccc(OC)c(CCNC(=O)CCn2ccc3cc(S(=O)(=O)N4CCCC4)ccc32)c1 | 3.65
Cc1ccc(NC(=O)Cn2nc3n(C(C)C)c(=O)c4ccc(C(=O)NC(C)C)cc4n3c2=O)c(Cl)c1 | 7.8
COc1ccc(OC)c(CNC(=O)CCn2ccc3cc(S(=O)(=O)N4CCCCC4)ccc32)c1 | -7.33
CCCn1c(=O)c2ccc(C(=O)NC3CCCC3)cc2n2c(=O)n(Cc3ccc(F)cc3Cl)nc12 | 5.95
CN(CC(=O)N1CCC2(CCNCC2)CC1)Cc1cccnc1 | -5.87
O=C(NCC1CCCCC1)c1cc(-c2cc(Cl)cc(Cl)c2)c2nncn2n1 | -7.54
NCCCC(=O)N1CCN(C2CCNCC2)C(=O)C1 | 1.59
COCC(=O)Nc1ncncc1-c1noc([C@@H]2CCCN2Cc2cc(OC)c(OC)c(OC)c2)n1 | -8.93
COC1CCN(CC2CCCCCN2C(=O)NCc2ccc(F)cc2)CC1 (stereo not drawn) | 0.992
COc1cc(NC(=O)Nc2cccc(CNC(=O)O[C@H]3CCOC3)c2)ccc1-c1cnco1 | -89.1
CC(F)(F)CN1CCOc2c(nn(-c3ccccc3Cl)c2-c2ccc(Cl)cc2)C1=O | -6.67
O=C(O)C1=NOC2CN([S+](=O)([O-])c3cc(C(F)(F)F)cc(C(F)(F)F)c3)CC12 (stereo not drawn) | 1.51
Cc1ccc(NC(=O)Cn2nc3n(C(C)C)c(=O)c4ccc(C(=O)NC5CCCCC5)cc4n3c2=O)cc1 | 8.87
Cc1cc2c(cc1S(=O)(=O)NCc1ccc3c(c1)OCO3)n(C)c(=O)n2C | 9.41
CN1CCCC1Cc1c[nH]c2ccc(CCS(=O)(=O)c3ccccc3)cc12 (stereo not drawn) | -89.9

----------
The compounds listed here are annotated with their activity change, negative = inhibition.
studySystem: Histamine N-methyltransferase (Homo sapiens)
assaySummary: Primary Screen for Target Class Profiling of Small Molecule Inhibitors of Methyltransferases; also: % is scaled to controls: 0 for no effect and ±100 for the full control effect
conditionSummary: purified enzyme, MTase-Glo SAH luminescence; measured here: HNMT inhibition; at 40 µM; stronger effect = lower value
In all, about 25,000 compounds went through this assay and about 970 (3.9%) were called active. About 8% were inconclusive and are not listed. The full list was thinned out, with actives kept by preference.

compound | units | activity change, negative = inhibition
Cc1cnc(C2CCC2)n1C1CCN(C(=O)CCC2CCCC2)CC1 | % | -52.2
C=Cc1ccc(Cn2nc3n(CC(C)C)c(=O)c4ccc(C(=O)NC(C)CC)cc4n3c2=O)cc1 (centres undefined) | % | 10.7
COCCN1CC2(CCC1=O)CCN(C(=O)[C@@H]1C[C@@H](O)CN1)CC2 | % | 1.21
CC1CC(O)/C=C/C(O)/C=C\C(=O)O1 (centres undefined) | % | 9.33
O=C(c1ccc(C(F)(F)F)cc1)N1CCC2(COc3ccncc3[S+](=O)([O-])N2)C1 (centres undefined) | % | -0.962
CCCn1c(=O)c2cc(Cl)ccc2n2c(SCC(=O)Nc3cccc(Cl)c3)nnc12 | % | 1.87
NS(=O)(=O)c1ccc(F)c(C(=O)NCc2noc(-c3ccco3)n2)c1 | % | -3.67
O=C(c1coc(CN2CCN(C/C=C/c3ccccc3)CC2)n1)N1CCC[C@H]1CO | % | 0.892
O=c1c2ccccc2n2c(=O)n(Cc3cccc(F)c3)nc2n1CCc1ccccc1 | % | 8.21
CN(CCCNC(=O)CCCc1nnc2n3nc(-c4ccccc4)nc3c3ccccc3n12)Cc1ccccc1 | % | -57.9
CCn1cc(S(=O)(=O)N2CCC(C3CCN(C(=O)NC)CC3)C2)cn1 (centres undefined) | % | -1.51
Cn1c(=O)n(C)c2cc(Nc3nc4ccccc4nc3NS(=O)(=O)c3ccc(Cl)cc3)ccc21 | % | -4.47
Cc1cc2c(cc3n2CC(C)(C(=O)NC2CCCCC2)N(C2CCCCCC2)C3=O)o1 (centres undefined) | % | 3.49
O=C(CCc1nnc2ccc(NCCCN3CCCC3=O)nn12)NCc1ccccc1Cl | % | 10.9
